Data provenance: paper PMC9482650

Target Of Assay: T1, DLG3_2, Q92796
T1 sequence (Q92796 221-321, limits assumed, looked up): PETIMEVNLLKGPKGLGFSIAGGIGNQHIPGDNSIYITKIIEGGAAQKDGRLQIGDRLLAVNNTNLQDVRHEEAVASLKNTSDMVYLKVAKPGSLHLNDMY
Test Details: holdup assay
Parameters: key: below the threshold = too weak to quantify, mostly under pKd 3.1 to 4
Condition Details: plain residues with an end cap or a label only (N-terminal biotin on a linker: ado-ado)
Property: pKd
Note: the reply should be a number with no unit written.

{"columns": ["Binder", "Assay Result"],
 "data": [
  ["FHSIKQSTAV [CRHR1, P34998]", 4.61],
  ["ELKAEDEVQI [DCHS2, Q6V1P9]", 3.59]
]}

Quick check: pKd of QLGSPTADLA [SIPA1, Q96FS4] ?
4.06

Request the reported pKd associated with TKEIPNCTSV [SORCS3, Q9UPU3]
4.22

Which pKd value is on record for VYEVPVETKF [SLC26A3, P40879] ?
4.13

Fill blank: measured pKd of the binder PLATCDETSI [SEMA4F, O95754] is ____.
4.3

# pKd lookup, item MLPANYVEAI [NEB, P20929]
4.11

Any idea what pKd was measured for KEKASTETEC [TRPM1, Q7Z4N2] ?
3.92

Which pKd is reported for this binder? PSVYSRSQYV [CLDN8, P56748]
3.74
